Record form. Attribute: IC50. Fill in for each entry.
# System Under Test: UniProt:Q14524
# Sequence (Q14524 whole entry): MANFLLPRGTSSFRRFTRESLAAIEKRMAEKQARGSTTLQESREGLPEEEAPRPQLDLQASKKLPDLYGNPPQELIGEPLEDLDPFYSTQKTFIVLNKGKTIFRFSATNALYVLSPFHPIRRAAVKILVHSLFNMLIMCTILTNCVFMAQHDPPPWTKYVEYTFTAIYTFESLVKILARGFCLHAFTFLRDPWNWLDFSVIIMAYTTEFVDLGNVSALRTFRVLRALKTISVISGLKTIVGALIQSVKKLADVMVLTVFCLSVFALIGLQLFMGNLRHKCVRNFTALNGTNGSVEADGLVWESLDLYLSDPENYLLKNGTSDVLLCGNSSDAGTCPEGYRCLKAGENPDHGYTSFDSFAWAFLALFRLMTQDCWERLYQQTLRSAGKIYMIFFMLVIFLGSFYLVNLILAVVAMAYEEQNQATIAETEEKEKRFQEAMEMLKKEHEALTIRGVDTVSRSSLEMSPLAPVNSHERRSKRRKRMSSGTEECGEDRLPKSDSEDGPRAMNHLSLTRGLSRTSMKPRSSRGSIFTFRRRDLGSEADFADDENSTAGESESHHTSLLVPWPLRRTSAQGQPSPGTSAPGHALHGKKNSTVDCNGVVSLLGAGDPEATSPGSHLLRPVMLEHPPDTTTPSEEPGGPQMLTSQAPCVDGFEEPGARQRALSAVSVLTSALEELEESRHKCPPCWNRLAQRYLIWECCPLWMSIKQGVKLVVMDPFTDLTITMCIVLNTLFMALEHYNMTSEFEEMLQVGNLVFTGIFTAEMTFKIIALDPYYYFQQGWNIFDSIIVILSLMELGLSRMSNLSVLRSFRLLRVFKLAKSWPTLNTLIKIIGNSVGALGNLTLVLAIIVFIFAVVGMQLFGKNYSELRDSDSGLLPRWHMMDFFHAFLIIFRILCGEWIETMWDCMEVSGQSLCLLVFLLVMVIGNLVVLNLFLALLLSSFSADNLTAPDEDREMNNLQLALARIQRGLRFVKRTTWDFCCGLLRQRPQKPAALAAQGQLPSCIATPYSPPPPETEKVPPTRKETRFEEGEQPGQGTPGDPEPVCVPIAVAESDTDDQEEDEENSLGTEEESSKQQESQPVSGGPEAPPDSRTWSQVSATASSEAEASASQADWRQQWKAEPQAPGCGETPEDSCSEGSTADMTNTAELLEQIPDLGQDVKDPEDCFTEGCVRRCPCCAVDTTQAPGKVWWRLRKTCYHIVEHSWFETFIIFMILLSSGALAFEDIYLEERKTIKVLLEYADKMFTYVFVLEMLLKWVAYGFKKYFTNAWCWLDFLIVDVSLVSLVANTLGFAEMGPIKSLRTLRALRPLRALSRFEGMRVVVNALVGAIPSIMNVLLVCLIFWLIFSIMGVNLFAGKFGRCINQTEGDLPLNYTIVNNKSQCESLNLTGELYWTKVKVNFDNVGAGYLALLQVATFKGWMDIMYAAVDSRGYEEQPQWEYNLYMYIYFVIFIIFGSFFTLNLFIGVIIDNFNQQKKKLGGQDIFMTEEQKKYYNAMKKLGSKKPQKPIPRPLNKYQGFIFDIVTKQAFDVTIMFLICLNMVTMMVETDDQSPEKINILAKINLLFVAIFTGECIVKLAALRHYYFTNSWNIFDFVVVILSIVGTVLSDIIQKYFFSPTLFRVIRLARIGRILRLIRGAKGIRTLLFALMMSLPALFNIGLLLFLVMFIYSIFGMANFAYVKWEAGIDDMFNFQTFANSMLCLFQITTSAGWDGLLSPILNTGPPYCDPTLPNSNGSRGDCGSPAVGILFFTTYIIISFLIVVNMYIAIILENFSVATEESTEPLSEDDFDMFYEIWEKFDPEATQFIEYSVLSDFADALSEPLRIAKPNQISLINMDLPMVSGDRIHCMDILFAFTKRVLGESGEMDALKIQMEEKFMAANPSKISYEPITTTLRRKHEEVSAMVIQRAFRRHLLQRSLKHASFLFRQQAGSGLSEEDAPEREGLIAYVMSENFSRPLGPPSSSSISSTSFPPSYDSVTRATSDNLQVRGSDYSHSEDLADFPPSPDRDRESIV
# Procedure Details: Nav 1.5 in vitro PX assay (PatchXpress whole cell voltage clamp)
# Format: cell-based
# Experimental Conditions: 293 cells stably transfected with Nav 1.5; second part of table; read-out: Nav1.5 PX IC50

The examples below pair each entry with its known result.
Compound	IC50
N#CCOc1cc(Cl)ccc1-c1nccc2cc(S(=O)(=O)Nc3nccs3)ccc12 [Example 373, 2,2,2-TRIFLUOROACETATE]	> 30 µM
COc1cc(-c2ccc(F)c(Cl)c2)ccc1-c1nccc2cc(S(=O)(=O)Nc3ccncn3)ccc12 [Example 490]	> 30 µM
COc1cc(C(F)(F)F)ccc1-c1nccc2cc(S(=O)(=O)Nc3nc(Cl)cs3)ccc12 [Example 419]	> 30 µM
COc1cccc(-c2ccc(-c3nccc4cc(S(=O)(=O)Nc5ccncn5)ccc34)c(OC)c2)c1 [Example 467]	> 30 µM
COc1ccc(-c2cccc(F)c2)cc1-c1nccc2cc(S(=O)(=O)Nc3nncs3)ccc12 [Example 345]	> 30 µM
COc1cc(C)ccc1-c1nccc2cc(S(=O)(=O)Nc3nccs3)ccc12 [Example 175]	> 30 µM

We next turn to a different compound, shown below.
IN: API: value(readout= IC50, system= UniProt:Q14524, query= COc1cc(-c2cccc(F)c2)ccc1-c1nccc2cc(S(=O)(=O)Nc3ccncn3)ccc12 [Example 199, 2,2,2-TRIFLUOROACETATE] )
OUT: > 30 µM

----------
# System Under Test: Nav 1.7 (Homo sapiens (Human), UniProt Q15858)
# Sequence (Q15858 whole entry): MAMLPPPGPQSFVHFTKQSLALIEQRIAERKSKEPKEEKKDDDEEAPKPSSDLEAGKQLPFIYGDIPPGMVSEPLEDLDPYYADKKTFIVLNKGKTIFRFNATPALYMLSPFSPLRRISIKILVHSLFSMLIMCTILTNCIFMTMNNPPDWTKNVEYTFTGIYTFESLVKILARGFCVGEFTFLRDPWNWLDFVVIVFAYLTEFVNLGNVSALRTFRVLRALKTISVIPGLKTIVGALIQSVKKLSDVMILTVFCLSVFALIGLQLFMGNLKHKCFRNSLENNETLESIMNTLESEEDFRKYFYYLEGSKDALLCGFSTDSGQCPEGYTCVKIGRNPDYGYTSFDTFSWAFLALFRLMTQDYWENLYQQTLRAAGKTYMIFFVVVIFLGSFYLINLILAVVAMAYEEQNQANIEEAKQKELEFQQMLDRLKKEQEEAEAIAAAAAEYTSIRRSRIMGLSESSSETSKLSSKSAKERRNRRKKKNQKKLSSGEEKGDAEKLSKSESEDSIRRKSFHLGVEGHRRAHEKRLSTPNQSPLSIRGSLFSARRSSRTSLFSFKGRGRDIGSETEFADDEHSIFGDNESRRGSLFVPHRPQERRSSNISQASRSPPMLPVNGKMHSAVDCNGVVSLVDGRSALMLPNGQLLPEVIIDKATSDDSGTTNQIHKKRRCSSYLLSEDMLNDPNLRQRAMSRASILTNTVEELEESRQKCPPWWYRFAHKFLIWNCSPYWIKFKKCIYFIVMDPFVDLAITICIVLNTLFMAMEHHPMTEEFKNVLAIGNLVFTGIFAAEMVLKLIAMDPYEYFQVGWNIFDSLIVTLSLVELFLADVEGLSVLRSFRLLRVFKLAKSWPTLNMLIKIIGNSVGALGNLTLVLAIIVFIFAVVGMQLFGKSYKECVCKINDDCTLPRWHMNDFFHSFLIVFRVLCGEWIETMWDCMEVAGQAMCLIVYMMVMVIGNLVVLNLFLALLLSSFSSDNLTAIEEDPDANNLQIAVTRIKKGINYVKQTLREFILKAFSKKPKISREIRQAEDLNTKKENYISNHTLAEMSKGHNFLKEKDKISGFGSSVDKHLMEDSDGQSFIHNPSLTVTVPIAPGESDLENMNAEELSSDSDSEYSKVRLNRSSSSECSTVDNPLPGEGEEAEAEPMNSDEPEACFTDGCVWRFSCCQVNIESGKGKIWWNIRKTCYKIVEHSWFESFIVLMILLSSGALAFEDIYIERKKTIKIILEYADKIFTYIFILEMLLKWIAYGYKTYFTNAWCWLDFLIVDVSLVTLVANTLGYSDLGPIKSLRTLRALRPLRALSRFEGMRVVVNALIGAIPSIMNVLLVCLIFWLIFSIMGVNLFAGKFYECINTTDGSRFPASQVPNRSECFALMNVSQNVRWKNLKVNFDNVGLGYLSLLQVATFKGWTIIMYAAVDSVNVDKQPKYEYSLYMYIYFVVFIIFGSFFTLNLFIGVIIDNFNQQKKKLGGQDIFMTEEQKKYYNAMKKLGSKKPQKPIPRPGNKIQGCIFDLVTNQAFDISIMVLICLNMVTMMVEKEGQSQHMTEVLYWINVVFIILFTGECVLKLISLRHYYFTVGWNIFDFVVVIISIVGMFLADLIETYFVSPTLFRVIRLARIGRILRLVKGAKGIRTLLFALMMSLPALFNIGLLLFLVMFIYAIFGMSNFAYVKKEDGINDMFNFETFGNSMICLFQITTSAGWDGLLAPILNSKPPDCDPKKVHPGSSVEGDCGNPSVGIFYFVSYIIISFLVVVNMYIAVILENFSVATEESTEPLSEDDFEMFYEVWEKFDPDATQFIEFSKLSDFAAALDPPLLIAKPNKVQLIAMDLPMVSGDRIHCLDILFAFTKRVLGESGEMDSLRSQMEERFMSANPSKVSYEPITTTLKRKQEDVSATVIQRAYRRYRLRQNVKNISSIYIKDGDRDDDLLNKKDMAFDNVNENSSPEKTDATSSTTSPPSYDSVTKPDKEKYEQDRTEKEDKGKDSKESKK
# Procedure Details: Nav 1.7 IWQ in vitro assay (IonWorks Quattro population patch-clamp)
# Type: cell-based
# Experimental Conditions: 293 cells stably transfected with Nav 1.7; second part of table; read-out: Nav1.7 IWQ IC50 IP
Recorded Endpoint: IC50 (nM)
Give bare numbers, in nM.

Examples from the recorded data:
Compound	System Under Test	Observed Value
COc1cc(C(F)(F)F)ccc1-c1nc(Cl)cc2cc(S(=O)(=O)Nc3nccs3)ccc12	Nav 1.7 (Homo sapiens (Human), UniProt Q15858)	170
COc1cc(-c2cnn(C)c2)ccc1-c1nccc2cc(S(=O)(=O)Nc3nccs3)ccc12	Nav 1.7 (Homo sapiens (Human), UniProt Q15858)	310
COc1cc(F)ccc1-c1ccnc2cc(S(=O)(=O)Nc3nccs3)ccc12	Nav 1.7 (Homo sapiens (Human), UniProt Q15858)	30
Cn1cccc1-c1nccc2cc(S(=O)(=O)Nc3nccs3)ccc12	Nav 1.7 (Homo sapiens (Human), UniProt Q15858)	1170

Batch: IC50 for all items listed.
1. O=S(=O)(Nc1nccs1)c1ccc2c(-c3ccc(F)cc3-c3ccncc3)nccc2c1
2. O=S(=O)(Nc1ncns1)c1ccc2c(C3CCCN3c3ccccn3)cccc2c1 (centres unmarked)

OUT:
1: 130; 2: 80

----------
# System Under Test: UniProt Q15858
# Procedure Details: Nav 1.7 IWQ in vitro assay (IonWorks Quattro population patch-clamp)
# Assay type: cell-based
# Experimental Conditions: 293 cells stably transfected with Nav 1.7; second part of table; read-out: Nav1.7 IWQ IC50 IP
The threshold is 100 nM. Values of IC50 beneath it are tagged T; values meeting or exceeding it are tagged F.

Worked set:
Compound	Answer Label
COc1cc(C(F)(F)F)ccc1-c1ccnc2cc(S(=O)(=O)Nc3nccs3)ccc12	T
O=S(=O)(Nc1ccncn1)c1ccc2c(OCc3ccc(N4CCOCC4)cc3)nccc2c1	F
Cn1nc(C(F)(F)F)cc1-c1nccc2cc(S(=O)(=O)Nc3ccncn3)ccc12	F
COc1ccc(C)cc1-c1nccc2cc(S(=O)(=O)Nc3ccncn3)ccc12	T
Cn1ccnc1-c1nccc2cc(S(=O)(=O)Nc3nccs3)ccc12 [Example 315, 2,2,2-TRIFLUOROACETATE]	F
COc1ccc(OC)c(-c2nccc3cc(S(=O)(=O)Nc4ccncn4)ccc23)c1	F
COc1ccc(C#N)cc1-c1nccc2cc(S(=O)(=O)Nc3ccncn3)ccc12	F

IN: Is the reported IC50 for COc1ccc(F)cc1-c1nccc2cc(S(=O)(=O)Nc3ccncn3)ccc12 strictly below 100 nM?
OUT: T

----------
# System Under Test: UniProt Q15858
# Procedure Details: Nav 1.7 in vitro PX assay (PatchXpress whole cell voltage clamp)
# Assay type: cell-based
# Experimental Conditions: 293 cells, human Nav1.7, partially inactivated state; read-out: Nav1.7 PX IC50 IP
Recorded Endpoint: pIC50
One number for each entry, as −log10 of the molar value.

Consider the following illustrative entries.
Compound	Recorded Endpoint	Observed Value
COc1cc(-c2ccc(C)c(Cl)c2)ccc1-c1nccc2cc(S(=O)(=O)Nc3ccncn3)ccc12 [Example 494]	pIC50	7.11
CN1CCN(c2cc(C(F)(F)F)ccc2-c2cccc3cc(S(=O)(=O)Nc4nccs4)ccc23)CC1 [Example 84, 2,2,2-TRIFLUOROACETATE]	pIC50	6.23
COc1ccccc1-c1ccc(-c2nccc3cc(S(=O)(=O)Nc4ccncn4)ccc23)c(OC)c1 [Example 466]	pIC50	6.64

Hi team, please reply with pIC50 for each item in this list.
1. O=S(=O)(Nc1ncc(F)s1)c1ccc2c(-c3ccc(C(F)(F)F)cc3-n3ccnc3)cccc2c1 [Example 112]
2. COc1cc(C(F)(F)F)ccc1-c1c(N)cnc2cc(S(=O)(=O)Nc3nccs3)ccc12 [Example 283]
3. COc1cc(-c2ccccc2)ccc1-c1cccc2cc(S(=O)(=O)Nc3ccncn3)ccc12 [Example 115]
4. COc1ccc(-c2nccc3cc(S(=O)(=O)Nc4ccncn4)ccc23)c(OC)n1 [Example 145]
5. O=S(=O)(Nc1ccncn1)c1ccc2c(OCCCc3ccc(Cl)cc3)nccc2c1 [Example 132]

OUT:
1. 6.34
2. 6.68
3. 6.16
4. 4.79
5. 5.10

----------
# System Under Test: Nav 1.7 (Homo sapiens (Human))
# Procedure Details: Nav 1.7 IWQ in vitro assay (IonWorks Quattro population patch-clamp)
# Format: cell-based
# Experimental Conditions: 293 cells stably transfected with Nav 1.7; second part of table; read-out: Nav1.7 IWQ IC50 IP
pIC50: −log10 of the molar value.
Just so you know, the groups by pIC50 go like this: L = under 6, M = from 6 up to 7, H = 7 and over

Take a look at these entries with their results.
Compound	Answer Label
O=S(=O)(Nc1nccs1)c1ccc2c(-c3ccc(F)cc3O)nccc2c1	M
O=C1CCCN1c1cccc2cc(S(=O)(=O)Nc3ncns3)ccc12	L
COC(=O)c1cccc2cc(S(=O)(=O)Nc3ncns3)ccc12	L
COc1cc(-c2cccc(F)c2)ccc1-c1nccc2cc(S(=O)(=O)Nc3ccncn3)ccc12 [Example 199, 2,2,2-TRIFLUOROACETATE]	H
COc1cc(C(F)(F)F)ccc1-c1nccc2cc(S(=O)(=O)Nc3cccnn3)ccc12	M
O=S(=O)(Nc1ccncn1)c1ccc2c(-c3ccc(C(F)(F)F)cc3Cl)nccc2c1	M

IN: Would you mind sorting COc1cc(Cl)ccc1-c1ncnc2cc(S(=O)(=O)Nc3nccs3)ccc12 into the appropriate category?
OUT: H

IN: Could you tell me which band COc1cc(C(F)(F)F)ccc1-c1c(N)cnc2cc(S(=O)(=O)Nc3nccs3)ccc12 belongs to?
OUT: H

IN: # bin label for COc1ncccc1-c1nccc2cc(S(=O)(=O)Nc3ccncn3)ccc12
OUT: L

IN: State the band of COc1cc(Cl)ccc1-c1ncc(F)c2cc(S(=O)(=O)Nc3ccncn3)ccc12
OUT: H

----------
Task for the reader: assign each of the following compounds its reported pIC50.
# System Under Test: Nav 1.7 (Homo sapiens (Human))
# Procedure Details: Nav 1.7 in vitro PX assay (PatchXpress whole cell voltage clamp)
# Format: cell-based
# Experimental Conditions: 293 cells, human Nav1.7, partially inactivated state; read-out: Nav1.7 PX IC50 IP
Give bare numbers, as −log10 of the molar value.

Worked examples follow.
Compound	Observed Value
COc1cc(C(F)(F)F)ccc1-c1ccnc2cc(S(=O)(=O)Nc3nccs3)c(F)cc12 [Example 319, 2,2,2-TRIFLUOROACETATE]	6.39
COc1cc(-c2cccnc2)ccc1-c1nccc2cc(S(=O)(=O)Nc3nccs3)ccc12	6.21
COc1ncc(Cl)cc1-c1ncnc2cc(S(=O)(=O)Nc3nccs3)ccc12	5.74

IN: Query: pIC50; subject: COc1ncccc1-c1ncc(F)c2cc(S(=O)(=O)Nc3nccs3)ccc12
OUT: 5.98

----------
# System Under Test: Nav 1.7 (Homo sapiens (Human))
# Procedure Details: Nav 1.7 IWQ in vitro assay (IonWorks Quattro population patch-clamp)
# Type: cell-based
# Experimental Conditions: 293 cells stably transfected with Nav 1.7; first part of table; read-out: Nav 1.7 IWQ IC50
# Description: Nav 1.7 or Nav 1.5 IWQ In Vitro Assay 293 Cells stably transfected with either Nav 1.7 or Nav 1.5 were recorded in population patch-clamp mode with the IonWorks® Quattro automated electrophysiology system in accordance with the manufacturer's specifications (Molecular Devices, LLC, Sunnyvale, Calif.). Sodium channel currents were measured in response to a train of depolarizations that induced successively greater inactivation. […]
Assign IC50 to each entry below.
One number for each entry, in nM.

Consider the following illustrative entries.
Molecule	IC50 / nM
O=S(=O)(Nc1ncns1)c1ccc2c(-c3ccc(C(F)(F)F)cc3Cl)cccc2c1 [Example 29]	50
N#Cc1cc(C(F)(F)F)ccc1-c1cccc2cc(S(=O)(=O)Nc3ncns3)ccc12 [Example 22]	40
O=S(=O)(Nc1nccs1)c1ccc2c(-c3ccc(C(F)(F)F)cc3Cl)nccc2c1 [Example 51]	110
Cc1ccc(-c2cccc3cc(S(=O)(=O)Nc4ncns4)ccc23)c(Cl)c1 [Example 6]	340

Parameter requested: IC50. Apply to each item below.
1. Cn1nccc1-c1cc(C(F)(F)F)ccc1-c1cccc2cc(S(=O)(=O)Nc3nccs3)ccc12 [Example 47]
2. Cc1cc(C(F)(F)F)ccc1-c1cccc2cc(S(=O)(=O)Nc3ncns3)ccc12 [Example 11]
3. O=S(=O)(Nc1ncns1)c1ccc2c(N3CCCC3c3ccccc3)cccc2c1 (centres unmarked) [Example 83]
4. CN(C)C(=O)C1CN(c2cccc3cc(S(=O)(=O)Nc4ncns4)ccc23)CCO1 (centres unmarked) [Example 19]

OUT:
[270, 80, 10, 1180]
